Overview of reported Activity across a group of compounds:
# System: Vero
# Assay method text: Cytotoxicity against african green monkey Vero cells at 10 uM
# Type: cell-based
# Condition label: chlorocebus sabaeus
Give the value in % but do not write % after it.

1) Cc1cc(=O)oc2c3c(c4c(c12)OC(C)(C)C=C4)O[C@H](C)C[C@@H]3O [(+)-11-DEMETHYL CORDATOLIDE A] : 0
2) CCCc1cc(=O)oc2c3c(c4c(c12)OC(C)(C)C=C4)O[C@H](C)C[C@@H]3O [(+)-11-DEMETHYL CALANOLIDE A] : 54

Name the recorded Activity of the item CCCc1cc(=O)oc2c3c(c4c(c12)OC(C)(C)C=C4)O[C@@H](C)C[C@H]3O [(-)-11-DEMETHYL CALANOLIDE A] in your answer.
0

Name the recorded Activity of the item CCCc1cc(=O)oc2c3c(c4c(c12)OC(C)(C)C=C4)O[C@@H](C)[C@H](C)[C@H]3O [(-)-CALANOLIDE A] in your answer.
0

Name the recorded Activity of the item CCCc1cc(=O)oc2c3c(c4c(c12)OC(C)(C)C=C4)O[C@H](C)[C@@H](C)[C@@H]3O [CALANOLIDE A] in your answer.
6

Name the recorded Activity of the item Cc1cc(=O)oc2c3c(c4c(c12)OC(C)(C)C=C4)O[C@H](C)[C@@H](C)[C@@H]3O [(+)-CORDATOLIDE A] in your answer.
0

Name the recorded Activity of the item CCCc1cc(=O)oc2c3c(c4c(c12)OC(C)(C)C=C4)O[C@H](C)[C@@H](C)[C@@H]3O (racemic) [CALANOLIDE A] in your answer.
0

Name the recorded Activity of the item Cc1cc(=O)oc2c3c(c4c(c12)OC(C)(C)C=C4)O[C@@H](C)C[C@H]3O [(-)-11-DEMETHYL CORDATOLIDE A] in your answer.
0

Name the recorded Activity of the item Cc1cc(=O)oc2c3c(c4c(c12)OC(C)(C)C=C4)O[C@@H](C)[C@H](C)[C@H]3O [(-)-CORDATOLIDE A] in your answer.
0

* * *

# Tested on: Human immunodeficiency virus 1
# Assay method text: Antiviral activity against HIV1 at 10 uM by luciferase assay
# Format: functional
# Condition label: Human immunodeficiency virus 1
Overview of reported inhibition at 10 µM across a group of molecules:
Give the value in % but do not write % after it.

Worked examples, 6 molecules total:
1) Cc1cc(=O)oc2c3c(c4c(c12)OC(C)(C)C=C4)O[C@@H](C)[C@H](C)[C@H]3O [(-)-CORDATOLIDE A] : 0
2) CCCc1cc(=O)oc2c3c(c4c(c12)OC(C)(C)C=C4)O[C@H](C)[C@@H](C)[C@@H]3O (racemic) [CALANOLIDE A] : 97
3) Cc1cc(=O)oc2c3c(c4c(c12)OC(C)(C)C=C4)O[C@@H](C)C[C@H]3O [(-)-11-DEMETHYL CORDATOLIDE A] : 0
4) Cc1cc(=O)oc2c3c(c4c(c12)OC(C)(C)C=C4)O[C@H](C)C[C@@H]3O [(+)-11-DEMETHYL CORDATOLIDE A] : 0
5) Cc1cc(=O)oc2c3c(c4c(c12)OC(C)(C)C=C4)O[C@H](C)[C@@H](C)[C@@H]3O [(+)-CORDATOLIDE A] : 85
6) CCCc1cc(=O)oc2c3c(c4c(c12)OC(C)(C)C=C4)O[C@@H](C)[C@H](C)[C@H]3O [(-)-CALANOLIDE A] : 97

Name the recorded inhibition at 10 µM of the item CCCc1cc(=O)oc2c3c(c4c(c12)OC(C)(C)C=C4)O[C@H](C)C[C@@H]3O [(+)-11-DEMETHYL CALANOLIDE A] in your answer.
98

Name the recorded inhibition at 10 µM of the item CCCc1cc(=O)oc2c3c(c4c(c12)OC(C)(C)C=C4)O[C@@H](C)C[C@H]3O [(-)-11-DEMETHYL CALANOLIDE A] in your answer.
0

src = ChEMBL document CHEMBL1142352
